FYI, the data here is from patent US10093630B2.

Biological target: ABHD6 (Mus musculus, UniProt Q8R2Y0)
Construct: Proteomes (mouse brain membrane fraction or cell lysates); from tissue; host or cells: mouse brain membrane fraction (or cell lysates, not specified)
Sequence (Q8R2Y0 1-336): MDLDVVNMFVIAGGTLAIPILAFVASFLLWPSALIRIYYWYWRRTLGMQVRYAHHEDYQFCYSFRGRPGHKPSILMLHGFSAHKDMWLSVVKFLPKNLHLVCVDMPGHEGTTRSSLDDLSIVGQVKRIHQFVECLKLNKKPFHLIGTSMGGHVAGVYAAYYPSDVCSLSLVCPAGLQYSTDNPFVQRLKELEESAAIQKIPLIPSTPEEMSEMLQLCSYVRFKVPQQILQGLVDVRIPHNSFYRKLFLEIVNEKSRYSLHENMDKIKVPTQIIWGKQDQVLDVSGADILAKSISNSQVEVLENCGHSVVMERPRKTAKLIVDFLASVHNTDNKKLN
Assay: In vitro competitive activity-based protein profiling (gel-based, FP-Rh or HT-01 probe)
Type: biochemical
Conditions: 1 μM inhibitor; read-out: % Inhibition at 1 μM, C = ABHD6

Cpd Smiles | inhibition at 1 µM
O=C(N1CCN(Cc2ccccn2)CC1)n1cc(-c2ccccc2)cn1 | > 75%
N#Cc1cnn(C(=O)N2CCN(Cc3ccc4ccccc4c3)CC2)c1 | > 75%
O=C(N1CCN(Cc2ccccc2Cl)CC1)n1cc(Cl)cn1 | > 75%
CCN(Cc1ccccc1C)C(=O)n1cc(Cl)cn1 | < 25%
O=C(N1CCN(Cc2ccc(-c3ccccc3)cc2OCc2ccccc2)CC1)n1cc(C(F)(F)F)cn1 | > 75%
O=C(c1cnn(C(=O)N2CCN(C(c3ccc(Cl)cc3)c3ccc(Cl)cc3)CC2)c1)N1CCC1 | > 75%
O=C(N1CCN(Cc2ccccc2)CC1)n1cc(C(F)(F)F)cn1 | > 75%
O=C(c1cnn(C(=O)N2CCN(Cc3cncnc3)CC2)c1)N1CCC1 | < 25%
O=C(N1CCCCC1)n1cccn1 | < 25%
CCN(Cc1ccccc1Cl)C(=O)n1cc(Cl)cn1 | < 25%

====

target: PLA2G7 (Mus musculus, UniProt Q60963); construct: Proteomes (mouse brain membrane fraction or cell lysates); from tissue; host or cells: mouse brain membrane fraction (or cell lysates, not specified); test: In vitro competitive activity-based protein profiling (gel-based, FP-Rh or HT-01 probe); type: biochemical; settings: 1 μM inhibitor; read-out: % Inhibition at 1 μM, D = PLA2G7
Sequence (Q60963 22-440): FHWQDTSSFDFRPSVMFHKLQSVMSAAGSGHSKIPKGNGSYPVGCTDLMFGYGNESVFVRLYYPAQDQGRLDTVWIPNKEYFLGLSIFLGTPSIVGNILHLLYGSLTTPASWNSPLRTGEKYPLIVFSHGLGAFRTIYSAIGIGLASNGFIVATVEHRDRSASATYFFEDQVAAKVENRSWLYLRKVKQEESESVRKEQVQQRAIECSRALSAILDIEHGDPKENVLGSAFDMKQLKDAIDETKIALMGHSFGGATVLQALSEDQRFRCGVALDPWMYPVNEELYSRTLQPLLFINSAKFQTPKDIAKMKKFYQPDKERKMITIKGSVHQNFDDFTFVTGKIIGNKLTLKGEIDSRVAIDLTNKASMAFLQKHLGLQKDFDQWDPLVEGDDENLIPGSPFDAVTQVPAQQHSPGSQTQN

Cpd Smiles | Assayed Target | inhibition at 1 µM
N#Cc1cnn(C(=O)N2CCN(C(=O)c3ccccc3)CC2)c1 | PLA2G7 (Mus musculus, UniProt Q60963) | > 75%
O=C(N1CCN(Cc2c(N3CCCC3)cccc2C(F)(F)F)CC1)n1cc(C(F)(F)F)cn1 | PLA2G7 (Mus musculus, UniProt Q60963) | > 75%
O=C(N1CCN(Cc2ccc3c(c2)OCO3)CC1)n1cc(-c2ccccc2)cn1 | PLA2G7 (Mus musculus, UniProt Q60963) | > 75%
O=C(Nc1ccc2ccccc2c1)n1cccn1 | PLA2G7 (Mus musculus, UniProt Q60963) | < 25%
N#Cc1cnn(C(=O)N2CCOCC2)c1 | PLA2G7 (Mus musculus, UniProt Q60963) | > 75%
CN1CCN(C(=O)n2cc(C#N)cn2)CC1 | PLA2G7 (Mus musculus, UniProt Q60963) | < 25%
O=C(N1CCN(c2ccc(Cl)cc2)CC1)n1cc(C(F)(F)F)cn1 | PLA2G7 (Mus musculus, UniProt Q60963) | > 75%
O=C(N1CCN(c2ccccc2N2CCCC2)CC1)n1cc(C(F)(F)F)cn1 | PLA2G7 (Mus musculus, UniProt Q60963) | > 75%
Cc1cc(N2CCN(C(=O)n3cc(C(F)(F)F)cn3)CC2)c2ccccc2n1 | PLA2G7 (Mus musculus, UniProt Q60963) | 25 to 75%
Cc1cc(-c2ccccc2)ccc1CN1CCN(C(=O)n2cc(C#N)cn2)CC1 | PLA2G7 (Mus musculus, UniProt Q60963) | > 75%
Cc1ccccc1N1CCN(C(=O)n2cc(C(F)(F)F)cn2)CC1 | PLA2G7 (Mus musculus, UniProt Q60963) | > 75%
